# test target: HDAC1 (Homo sapiens, UniProt Q13547)
# Sequence (Q13547 whole entry): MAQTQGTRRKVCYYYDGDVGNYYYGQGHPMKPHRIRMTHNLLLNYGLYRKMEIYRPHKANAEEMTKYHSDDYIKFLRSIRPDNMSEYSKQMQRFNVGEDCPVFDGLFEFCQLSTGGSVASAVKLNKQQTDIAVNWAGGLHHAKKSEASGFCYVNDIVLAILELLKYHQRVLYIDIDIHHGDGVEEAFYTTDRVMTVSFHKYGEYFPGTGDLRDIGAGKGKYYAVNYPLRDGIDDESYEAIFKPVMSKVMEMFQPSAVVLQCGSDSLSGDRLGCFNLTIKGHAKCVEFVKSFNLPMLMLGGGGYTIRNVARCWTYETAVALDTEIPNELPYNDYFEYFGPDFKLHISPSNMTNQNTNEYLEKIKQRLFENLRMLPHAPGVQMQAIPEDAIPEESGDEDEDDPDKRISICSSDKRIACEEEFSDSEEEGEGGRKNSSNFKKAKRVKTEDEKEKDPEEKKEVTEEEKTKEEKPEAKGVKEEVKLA
property measured: IC50 (nM)

Answered examples (4):
molecule: CC(C)c1cc(C(=O)N(Cc2ccc(C(=O)NO)cc2)c2ccc(I)cc2)c(O)cc1O [Compound 69]
test target: HDAC1 (Homo sapiens, UniProt Q13547)
property measured: IC50
scale unit: nM
endpoint result: 1290
--
molecule: CC(C)c1cc(C(=O)N(Cc2ccc(C(=O)NO)cc2)c2ccc(Cl)cc2)c(O)cc1O [Compound 68]
test target: HDAC1 (Homo sapiens, UniProt Q13547)
property measured: IC50
scale unit: nM
endpoint result: 1810
--
molecule: CC(C)c1cc(C(=O)N(Cc2ccc(C(=O)NO)cc2)c2ccc3c(c2)OCO3)c(O)cc1O [Compound 70]
test target: HDAC1 (Homo sapiens, UniProt Q13547)
property measured: IC50
scale unit: nM
endpoint result: 1120
--
molecule: COc1ccc(N(Cc2ccc(C(=O)NO)cc2)C(=O)c2cc(C(C)C)c(O)cc2O)cc1 [Compound 75]
test target: HDAC1 (Homo sapiens, UniProt Q13547)
property measured: IC50
scale unit: nM
endpoint result: 616

I. CC(C)c1cc(C(=O)N(Cc2ccc(C(=O)NO)cc2)c2ccc(N3CCN(C)CC3)cc2)c(O)cc1O [Compound 73]
II. CC(C)c1cc(C(=O)N(C)Cc2ccc(C(=O)NO)cc2)c(O)cc1O [Compound 63]
Which shows the larger IC50 value: I or II ? Indicate your choice by writing its label.
II
(II: 1760 nM, I: 173 nM)
